Hi there, I'd appreciate the recorded IC50 for every entry that follows.
- assayedSystem: CRTH2 (Homo sapiens, UniProt Q9Y5Y4)
- protocol: FRET based competitive immunoassay (cAMP) in CRTH2 expressing CHO cells
- appliedConditions: CRTH2 expressing CHO cells incubated with forskolin and PGD2; Eu3+ cryptate-labeled anti-cAMP and d2-labeled cAMP
- Protocol: FRET Assay: To evaluate potency compounds were tested in a FRET based competitive immunoassay in which CRTH2 expressing CHO cells were incubated in the presence of forskolin and PGD2 along with Eu3+ cryptate-labeled anti-cAMP and d2-labeled cAMP.

Observe how each entry below is paired with its result.
smilesText: Cc1c(-c2ccc(=O)n(CCCC(F)(F)F)c2)c2ccccc2n1CC(=O)O
assayedSystem: CRTH2 (Homo sapiens, UniProt Q9Y5Y4)
IC50: 397 nM
//
smilesText: Cc1c(-c2ccc(=O)n(Cc3ccc(Cl)cc3)n2)c2cc(F)ccc2n1CC(=O)O
assayedSystem: CRTH2 (Homo sapiens, UniProt Q9Y5Y4)
IC50: 5 nM

// batch mode: one IC50 value per listed entry
1. Cc1c(-c2ccc(=O)n(Cc3ccccc3)c2)c2cc(F)ccc2n1CC(=O)NS(C)(=O)=O
2. Cc1c(Cc2cn(Cc3ccccc3)c(=O)c3ccccc23)c2cc(Cl)ccc2n1CC(=O)O
3. Cc1c(-c2nn(Cc3cccc(F)c3)c(=O)c3ccccc23)c2cc(F)ccc2n1CC(=O)O
4. Cc1c(Cc2ccc(=O)n(Cc3ccc(F)cc3F)n2)c2cc(F)ccc2n1CC(=O)NS(C)(=O)=O
5. Cc1c(-c2ccc(=O)n(Cc3ccccc3)n2)c2cccc(Br)c2n1CC(=O)O
6. Cc1c(-c2nn(Cc3ccc(S(C)(=O)=O)cc3)c(=O)c3ccccc23)c2cc(F)ccc2n1CC(=O)O

32 nM
210 nM
3 nM
> 1000 nM
> 2000 nM
18 nM

----------
- assayedSystem: CRTH2 (Homo sapiens)
- Construct: expressed in transfected cells; host or cells: CHO cells
- Sequence (Q9Y5Y4 1-395): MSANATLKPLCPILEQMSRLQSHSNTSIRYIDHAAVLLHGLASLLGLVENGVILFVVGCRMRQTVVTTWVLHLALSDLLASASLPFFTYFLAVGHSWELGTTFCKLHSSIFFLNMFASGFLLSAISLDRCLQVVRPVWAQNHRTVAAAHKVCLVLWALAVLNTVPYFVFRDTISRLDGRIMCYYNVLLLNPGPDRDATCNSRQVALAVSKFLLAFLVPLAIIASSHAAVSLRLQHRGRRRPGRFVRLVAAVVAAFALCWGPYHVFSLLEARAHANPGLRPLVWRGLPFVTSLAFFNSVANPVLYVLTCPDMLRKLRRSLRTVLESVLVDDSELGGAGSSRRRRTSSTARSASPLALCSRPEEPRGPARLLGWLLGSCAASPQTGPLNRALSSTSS
- protocol: FRET based competitive immunoassay (cAMP) in CRTH2 expressing CHO cells
- Type: cell-based
- appliedConditions: CRTH2 expressing CHO cells incubated with forskolin and PGD2; Eu3+ cryptate-labeled anti-cAMP and d2-labeled cAMP
pIC50: −log10 of the molar value.
Label 0 if pIC50 falls below 7; label 1 in every other case.

Record excerpt, results attached:
smilesText: CCC(O)(CC)Cn1nc(-c2c(C)n(CC(=O)O)c3ccc(F)cc23)c2ccccc2c1=O
classification: 1

smilesText: Cc1c(-c2ccc(=O)n(Cc3ccc(F)cc3)c2)c2cc(Cl)ccc2n1CC(=O)O
classification: 1

smilesText: Cc1c(-c2nn(Cc3ccccc3C(F)(F)F)c(=O)c3ccccc23)c2cc(Cl)ccc2n1CC(=O)O
classification: 1

smilesText: Cc1c(Cc2nn(Cc3ccccc3)c(=O)c3ccccc23)c2cc(Cl)ccc2n1CC(=O)O
classification: 1

Reported pIC50 reaches at least 7 for `Cc1c(Cc2ccc(=O)n(Cc3cccc(F)c3)c2)c2ccccc2n1CC(=O)O` ? 1

Is pIC50 at least 7? Consider `Cc1c(-c2ccc(=O)n(Cc3cc(F)ccc3F)n2)c2cc(F)ccc2n1CC(=O)O` 1

Can `Cc1c(CC2=NN(CCCC(F)(F)F)C(=O)CC2)c2cc(F)ccc2n1CC(=O)O` be said to have pIC50 at or above 7? 1

Please check the record `Cc1c(-c2ccc(=O)n(Cc3c(F)cccc3F)c2)c2ccccc2n1CC(=O)O` and state if its pIC50 is at or above 7. 1
